# studyTarget: MAPKAP-K2 (Homo sapiens, UniProt P49137)
# Sequence (P49137 whole entry): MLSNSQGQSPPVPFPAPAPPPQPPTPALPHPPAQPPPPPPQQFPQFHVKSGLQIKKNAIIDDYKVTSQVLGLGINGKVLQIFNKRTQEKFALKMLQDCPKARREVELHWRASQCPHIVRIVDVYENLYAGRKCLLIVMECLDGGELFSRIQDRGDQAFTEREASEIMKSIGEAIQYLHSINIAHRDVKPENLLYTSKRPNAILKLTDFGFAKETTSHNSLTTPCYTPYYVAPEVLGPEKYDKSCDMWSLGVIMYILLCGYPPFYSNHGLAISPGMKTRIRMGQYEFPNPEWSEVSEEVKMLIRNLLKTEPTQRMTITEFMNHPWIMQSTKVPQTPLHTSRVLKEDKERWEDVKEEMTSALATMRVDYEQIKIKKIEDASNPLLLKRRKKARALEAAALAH
# experimentNotes: MAPKAP-K2 enzyme activity inhibition (33P-ATP filter plate kinase assay); also: key: +: active; ++: more active; +++: very active
# Assay type: biochemical
# testConditions: MAPKAP-K2 inhibitory activity; assays conducted at typically 1-100 μM
# Procedure: [General Procedure for Measurement of MAPKAP-K2 Enzyme Activity Inhibition] After conducting the reaction for 30 minutes at room temperature, an equivalent volume of a 200 mM phosphoric acid solution was added to suspend the reaction, and 90 μL of the reaction product was adsorbed onto a MultiScreen PH plate (Millipore) and rinsed with a 100 mM phosphoric acid solution. […]
recordedMetric: activity (efficacy against MAPKAP-K2)

Guide cases for activity (efficacy against MAPKAP-K2), answers given:
INSERT INTO results (compound, value) VALUES
  ('Cc1c(NC2CCCNC2)nc2ccnn2c1Nc1ccc(-c2cccc(CO)c2)cc1 (centres unmarked) [Compound 445]', '+++'),
  ('Cc1c(N[C@H]2CC[C@H](N)CC2)nc2ccnn2c1Nc1cccc(-c2cccnc2)c1 [Compound 450]', '+++'),
  ('Cc1c(N[C@H]2CC[C@H](N)CC2)nc2ccnn2c1Nc1ccc(OC2CCOCC2)cc1 [Compound 219]', '+++'),
  ('CCc1c(NC2CCCNC2)nc2ccnn2c1Nc1ccc(Oc2ccc(C)cc2)cc1 (centres unmarked) [Compound 63]', '+++'),
  ('Cc1c(N[C@H]2CC[C@H](N)CC2)nc2ccnn2c1Nc1cccc(OCc2ccc(Cl)cc2)c1 [Compound 248]', '++');

Requested field: activity (efficacy against MAPKAP-K2). Item: CCc1c(N[C@H]2CC[C@H](N)CC2)nc2ccnn2c1NCc1ccccc1Cl [Compound 38]
++

Same question, Cc1c(N[C@H]2CC[C@H](N)CC2)nc2ccnn2c1Nc1ccc(OCc2ccc(Cl)cc2)cc1 [Compound 211] this time
+++

Same question, Cc1c(NC2CCCNC2)nc2ccnn2c1Nc1ccc(-c2cccc(N)c2)cc1 (centres unmarked) [Compound 444] this time
+++

====

# studyTarget: MAPKAP-K2 (Homo sapiens)
# experimentNotes: MAPKAP-K2 enzyme activity inhibition (33P-ATP filter plate kinase assay)
# Format: biochemical
# testConditions: MAPKAP-K2 inhibitory activity; assays conducted at typically 1-100 μM
recordedMetric: activity (efficacy against MAPKAP-K2)

INSERT INTO measurements (compound, value) VALUES
  ('Cc1c(N[C@H]2CC[C@H](N)CC2)nc2ccnn2c1Nc1ccc(N2CCCCC2)cc1', '+++'),
  ('N[C@H]1CC[C@H](Nc2cc(Nc3ccc(F)c(Cl)c3)n3ncc(I)c3n2)CC1', '++'),
  ('CSc1ccc(Nc2c(C)c(N[C@H]3CC[C@H](N)CC3)nc3ccnn23)cc1', '+++'),
  ('CCc1c(N[C@H]2CC[C@H](N)CC2)nc2ccnn2c1Nc1ccc(OC)c(Cl)c1', '+++'),
  ('Cc1c(N[C@H]2CC[C@H](N)CC2)nc2ccnn2c1Nc1ccc(-c2cc3ccccc3o2)cc1', '+++'),
  ('Cc1c(N[C@H]2CC[C@H](N)CC2)nc2ccnn2c1Nc1ccc(C#Cc2ccccc2)cc1', '+++'),
  ('Cc1c(N[C@H]2CC[C@H](N)CC2)nc2ccnn2c1Nc1ccccc1Cl', '+++'),
  ('CC(=O)c1ccc(-c2ccc(Nc3c(C)c(N[C@H]4CC[C@H](N)CC4)nc4ccnn34)cc2)s1', '+++');

activity (efficacy against MAPKAP-K2) of Cc1c(N[C@H]2CC[C@H](N)CC2)nc2ccnn2c1Nc1ccc(-c2cccc(C(F)(F)F)c2)cc1 on MAPKAP-K2 (Homo sapiens)?
+++

Same question, Cc1c(N[C@H]2CC[C@H](N)CC2)nc2ccnn2c1Nc1ccc(OCc2ccc(N)cc2)cc1 this time
++

Same question, Cc1c(NC2CCCNC2)nc2ccnn2c1Nc1ccccc1F (centres unmarked) this time
+++

Same question, COc1ccccc1-c1ccc(Nc2c(C)c(N[C@H]3CC[C@H](N)CC3)nc3ccnn23)cc1 this time
+++

Same question, CCc1c(N[C@H]2CC[C@H](N)CC2)nc2ccnn2c1Nc1ccc(SC)cc1 this time
+++

Same question, Cc1ccc(Nc2c(C)c(NC3CCCNC3)nc3ccnn23)cc1C (centres unmarked) this time
+++

Same question, Cc1c(N[C@H]2CC[C@H](N)CC2)nc2ccnn2c1Nc1ccc(C(=O)N2CCCC2)cc1 this time
+++

Same question, Cc1c(N[C@H]2CC[C@H](N)CC2)nc2ccnn2c1Nc1cccc(OCc2cccc(Cl)c2)c1 this time
++

Same question, Cc1nc2ccc(Nc3c(C)c(N[C@H]4CC[C@H](N)CC4)nc4ccnn34)cc2s1 this time
+++

Same question, Cc1c(NC2CCC(N)CC2)nc2ccnn2c1Nc1ccc(OCC2CCCCN2)cc1 (centres unmarked) this time
+++

Same question, Cc1c(N[C@H]2CC[C@H](N)CC2)nc2ccnn2c1Nc1ccc2cn[nH]c2c1 this time
+++

Same question, CCOc1ccc(Nc2c(C)c(NC3CCCCNC3)nc3ccnn23)cc1 (centres unmarked) this time
++
